Biological target: T1, canine OX40L, full length membrane form, expressed on HEK293 cells (canine)
T1 chain: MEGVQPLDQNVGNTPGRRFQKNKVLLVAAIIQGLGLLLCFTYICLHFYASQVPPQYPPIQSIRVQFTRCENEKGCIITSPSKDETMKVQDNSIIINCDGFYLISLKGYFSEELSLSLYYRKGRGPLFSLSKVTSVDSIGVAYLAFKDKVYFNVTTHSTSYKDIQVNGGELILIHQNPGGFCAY
Experiment: cell-based or functional assay
property-label: % Signal Inhibition Rep1 (%)
Answer format: numeric, % implied, no suffix.

Request: Assign % Signal Inhibition Rep1 to the following record: PMX097 (antibody, V domains shown, also called PMX97) VH: EVQLVESGGDLVRPGGSLRLSCVASGITFSSYHMSWVRQAPGKGLQWVALINSGGSSITYADVVRGRFTISRDYAKNTLYLQMNSLRAEDTAVYYCASGSIWTHFDYWGQGTRVTVSS VL: SFVLTQLPSVSVTLRQTARITCGGDIIGSKNVYWYQQRLGQAPVLIIYRDSNRPTGIPERFSGASSGNTATLTISGALAEDEADYYCQVWDNSNKAMFGGGTHLTVL
Result: 56.1

Request: Please give measured % Signal Inhibition Rep1 of the following entry: PMX108 (antibody, V domains shown) VH: EVQLVESGGDLVRPGGSLRLSCVASGFTFTNYHMSWVRQAPGKGLQWVAFINSGGSSTTYTDVVRGRFTISRDYAKNTLYLQMNSLTAEDTAVYYCASGAIWTHFDHWGQGTLVTVSS VL: SFVLTQLPSVSVTLRQTARITCGGDSVGSKSVYWYQQKLGQAPVLIIYRDSNRPTGIPERFSGASSGNTATLTISGALAEDEADYYCQVWDNSNKAIFGGGTHLTVL
Result: 95.6

Request: Please give measured % Signal Inhibition Rep1 of the following entry: PMX104 (antibody, V domains shown) VH: EVQLVESGGDLVRPGGSLRLSCVASGFTFSNYHMSWVRQAPGKGLQWVAFINSGGTSTTYADAVRGRFTTSRDYAKNTLYLQMNSLRAEDTAVYYCTSGSIWTHFDYWGQGTLVTVSS VL: SFVLTQLPSVSVTLRQTARITCGGDIIGSKSVYWFQQKLGQAPILIIYRDDNRPTGIPERFSGASSGNTATLIISGALAEDEAHYYCQVWDSSSKAMFGGGTHLTVL
Result: 31

Request: Return reported % Signal Inhibition Rep1. Input binder: PMX293 (antibody, V domains shown) VH: EVRLLESGGDLVKPAGSLRLSCAVSGFTFSTYDMSWVRQAPGKGLQWVAYITYDGRTTSYTDTVKGRFTVSRDNAKNMLYLKMNSLRSEDAAVYYCAKAHRGWFFDHWGQGTLVTVSS VL: SYVLTQLPSVSVTLRQTARITCGGDSIGSKNVYWYQQKLGQAPVLIIYDDTSRPSGIPERFSGANSGTTATLTISGALAEDEADYYCQVWDSSTGVFGGGTHLTVL
Result: 81.6
